assay.details: Aqueous solubility of compound at pH 7.4 by HPLC analysis
experimental.setup: buffer
Attribute: log10 of solubility
property.name: log10 of solubility (log10 of the value in µM)

[
  {
    "molecule": "O=c1c2c([nH]c3cc(Cl)ccc13)CCCC2",
    "recorded.value": 1.18
  },
  {
    "molecule": "O=c1c2c([nH]c3cc(C(F)(F)F)ccc13)CCCCCC2",
    "recorded.value": 1.11
  },
  {
    "molecule": "Cc1ccc2c(=O)c3c([nH]c2c1C)CCCC3",
    "recorded.value": 0.90
  },
  {
    "molecule": "Cc1cc(Oc2ccc(OC(F)(F)F)cc2)ccc1-c1ccc2[nH]c3c(c(=O)c2c1)CSCC3",
    "recorded.value": 0.85
  },
  {
    "molecule": "COc1cccc2c(=O)c3c([nH]c12)CCC(C)(C)C3",
    "recorded.value": 1.96
  },
  {
    "molecule": "CC(C)Oc1cc2[nH]c3c(c(=O)c2cc1Cl)CCCC3",
    "recorded.value": -0.52
  },
  {
    "molecule": "O=c1c2c([nH]c3cc(-c4c(F)cccc4F)ccc13)CCCC2",
    "recorded.value": -0.52
  },
  {
    "molecule": "CC1(C)CCc2c([nH]c3ccc(Cl)cc3c2=O)C1",
    "recorded.value": 0.30
  },
  {
    "molecule": "CC1(C)CCc2c([nH]c3c(Cl)cccc3c2=O)C1",
    "recorded.value": 1.30
  },
  {
    "molecule": "O=c1c2c([nH]c3ccc(-c4ccncc4)cc13)CCSC2",
    "recorded.value": 1.65
  },
  {
    "molecule": "Cc1ccc2c(=O)c3c([nH]c2c1)CCCC3",
    "recorded.value": 1.95
  },
  {
    "molecule": "CC(C)(C)c1ccc2[nH]c3c(c(=O)c2c1)CCCC3",
    "recorded.value": 0.70
  },
  {
    "molecule": "Cc1cc2[nH]c3c(c(=O)c2cc1C)CCCC3",
    "recorded.value": 1.61
  },
  {
    "molecule": "COc1cc2[nH]c3c(c(=O)c2cc1OC)CCCC3",
    "recorded.value": 1.94
  },
  {
    "molecule": "O=c1c2c([nH]c3ccc(Cl)cc13)CCCC2",
    "recorded.value": 0.60
  },
  {
    "molecule": "COc1ccc2c(=O)c3c([nH]c2c1)CCC(C)(C)C3",
    "recorded.value": 1.79
  },
  {
    "molecule": "O=c1c2c([nH]c3ccc(-c4ccc(F)cc4F)cc13)CCSC2",
    "recorded.value": 0.85
  },
  {
    "molecule": "O=c1c2c([nH]c3ccc(-c4cccc(Oc5ccc(F)cc5)c4)cc13)CCSC2",
    "recorded.value": -0.52
  },
  {
    "molecule": "O=c1c2c([nH]c3cc(C(F)(F)F)ccc13)CCC2",
    "recorded.value": 1.99
  },
  {
    "molecule": "COc1cccc2[nH]c3c(c(=O)c12)CCC(C)(C)C3",
    "recorded.value": 1.81
  },
  {
    "molecule": "O=c1c2c([nH]c3cc(F)ccc13)CCCC2",
    "recorded.value": 1.66
  },
  {
    "molecule": "Cc1cc(C)c2c(=O)c3c([nH]c2c1)CCCC3",
    "recorded.value": 1.23
  },
  {
    "molecule": "COc1ccc2c(=O)c3c([nH]c2c1)CCC3",
    "recorded.value": 1.96
  },
  {
    "molecule": "Cc1cccc2[nH]c3c(c(=O)c12)CCC(C)(C)C3",
    "recorded.value": 0.95
  },
  {
    "molecule": "O=c1c2c([nH]c3cc(-c4ccc(C(F)(F)F)cc4)ccc13)CCCC2",
    "recorded.value": 0.48
  }
]
